Value source: patent US12398154B2

Each record here notes measured pIC50.
# target desc: KRas G12R (Homo sapiens, UniProt P01116, G12R)
# Sequence (P01116 1-169 isoform P01116-2 G12R): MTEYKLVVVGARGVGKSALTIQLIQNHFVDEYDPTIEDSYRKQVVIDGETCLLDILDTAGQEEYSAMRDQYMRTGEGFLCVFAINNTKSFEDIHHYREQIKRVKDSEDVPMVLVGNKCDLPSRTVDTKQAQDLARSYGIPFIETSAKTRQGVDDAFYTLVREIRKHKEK
# experimental details: biochemical
// returns pIC50 (minus log10 of molar concentration), number only

Some solved cases for reference:
CCc1c(F)ccc2cc(O)cc(-c3ncc4c(N(C)CC5CNS(=O)(=O)N5)nc(OC[C@@]56CCCN5C[C@H](F)C6)nc4c3F)c12 (stereo partly shown) [Example 495] | 8.15
N#CC1CCCN(c2nc(OCC34CCCN3CCC4)nc3c(F)c(-c4cccc5cccc(F)c45)ncc23)CC1 (stereo not shown) [Example 87] | 4.92
Cc1cc2[nH]ncc2c(-c2ncc3c(N4CCOCC(C)(O)C4)nc(OCC45CCCN4CCC5)nc3c2F)c1C (stereo not shown) [Example 522] | 6.12
NC(=O)NC1CCN(c2nc(OCC34CCCN3CCC4)nc3c(F)c(-c4cccc5cccc(F)c45)ncc23)CC1 [Example 243] | 5.98

// switching to the query compound
What measured pIC50 is associated with O=c1cc(CNc2nc(OCC34CCCN3CCC4)nc3c(F)c(-c4cccc5cccc(F)c45)ncc23)[nH][nH]1 [Example 231] on KRas G12R (Homo sapiens, UniProt P01116, G12R)? 5.06

====

# Test system: pERK in PSN1 cells
# experimental details: Inhibition of KRas phosphorylation of ERK (Cisbio HTRF pERK assay)
# condition: Homo sapiens, PSN1, 3 h, read-out: Inhibition (HTRF IC50) of KRas-mediated Phosphorylation of ERK, PSN1
measure name: pIC50
// returns pIC50 (minus log10 of molar concentration), number only

CCc1c(F)ccc2cc(O)cc(-c3ncc4c(N5CCOCC6(C5)NC(=O)NC6=O)nc(OC[C@@]56CCCN5C[C@H](F)C6)nc4c3F)c12 (stereo partly drawn) | 5.73
CCc1c(F)ccc2cc(O)cc(-c3ncc4c(N5CCCSCC5)nc(OC[C@@]56CCCN5C[C@H](F)C6)nc4c3F)c12 | 5.65
CCc1c(F)ccc2cc(O)cc(-c3ncc4c(N5CCCC6(CCC(F)(F)C6)C5)nc(OC[C@@]56CCCN5C[C@H](F)C6)nc4c3F)c12 (stereo partly drawn) | 5.21

# lookup: pIC50 of CCc1c(F)ccc2cc(O)cc(-c3ncc4c(N5CCCCCCC5)nc(OC[C@@]56CCCN5C[C@H](F)C6)nc4c3F)c12 5.29

# lookup: pIC50 of CCc1c(F)ccc2cc(O)cc(-c3ncc4c(N5CCCOCC5)nc(OC[C@@]56CCCN5C[C@H](F)C6)nc4c3F)c12 5.71

====

Each record here notes measured pIC50.
# target desc: KRas G12R (Homo sapiens, UniProt P01116, G12R);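 also: TR-FRET displacement assay of compound binding to KRas, read after one hour at room temperature, potency from a four-parameter fit of percent-of-control values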
# experimental details: biochemical
pIC50: −log10 of the molar value.

Some solved cases for reference:
CCc1c(F)ccc2cc(O)cc(-c3ncc4c(N5CC6CC(O)C(C6)C5)nc(OC[C@@]56CCCN5C[C@H](F)C6)nc4c3F)c12 (stereo partly drawn) [Example 82] | ≥ 8.70
CCc1c(F)ccc2cc(O)cc(-c3ncc4c(NCC5NC(=O)NC5=O)nc(OC[C@@]56CCCN5C[C@H](F)C6)nc4c3F)c12 (stereo partly drawn) [Example 369] | 8.40
O=S1(=O)CCC(Nc2nc(OCC34CCCN3CCC4)nc3c(F)c(-c4cccc5cccc(F)c45)ncc23)C1 (stereo not drawn) [Example 279] | 5.44
O=S1(=O)NC[C@]2(CCCN(c3nc(OC[C@@]45CCCN4C[C@H](F)C5)nc4c(F)c(-c5cc(O)cc6ccc(F)c(Cl)c56)ncc34)C2)N1 [Example 515] | ≥ 8.70
C#Cc1c(F)ccc2cc(O)cc(-c3ncc4c(NCc5c[nH]c6ncccc56)nc(OC[C@@]56CCCN5C[C@H](F)C6)nc4c3F)c12 [Example 150] | ≥ 8.70

// switching to the query compound
# lookup: pIC50 of O=C1NCC2(CCCN(c3nc(OC[C@@]45CCCN4C[C@H](F)C5)nc4c(F)c(-c5cc(O)cc6ccc(F)c(F)c56)ncc34)C2)N1 (stereo partly drawn) [Example 445] ≥ 8.70
